# Tested on: Fibrinogen (Alexa647-labelled)
# test-method-notes: fibrinogen binders on compound microarrays, profiling panel, artefact control for SMM control-protein annotation, biochemical, small-molecule microarray, 635/667 nm fluorescence (AID 1131);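 further: z-score merges 667 nm fluorescence with per-spot signal-to-noise over triplicate slides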
# conditions: fibrinogen-A647 binding fluorescence, higher = more signal
For each entry below, report its composite z-score value.
// print number alone

**Query** Given the compound COc1ccccc1CN1C(=O)c2ccccc2[C@](Cc2ccccc2I)(C(=O)NC(C)C)[C@@H]1c1ccc(CO)cc1 , what is its reported composite z-score?
**Result** 0.983

**Query** Given the compound COC1(C)CN(Cc2ccccc2Br)[C@H](/C=C/c2ccccc2)[C@H](Cc2ccccc2)O1 (some centres not stated) , what is its reported composite z-score?
**Result** -0.291

**Query** Given the compound CO[C@H]1O[C@H](CO)[C@@H](OC(=O)Nc2ccccc2-c2ccccc2)[C@H](OC(=O)Nc2ccc3c(c2)OCO3)[C@@H]1OC(=O)Nc1ccc2c(c1)OCO2 , what is its reported composite z-score?
**Result** 0.991

**Query** Given the compound CCN(CC)c1ccc(N2CC=CC34O[C@@H]5/C=C\CCC(C)OC(=O)C5[C@H]3C(=O)N(CCO)[C@@H]4C2=O)cc1 (some centres not stated) , what is its reported composite z-score?
**Result** -1.45

**Query** Given the compound O=C1O[C@@H](c2ccccc2)[C@@H](c2ccccc2)N2[C@@H](c3ccccc3OCCO)[C@]3(C(=O)Nc4ccccc43)[C@@H](C(=O)NC[C@H](O)c3ccccc3)[C@H]12 , what is its reported composite z-score?
**Result** -0.0424

**Query** Given the compound O=C1O[C@@H](c2ccccc2)[C@@H](c2ccccc2)N2[C@@H](c3ccc(O)cc3)[C@]3(C(=O)Nc4ccccc43)[C@@H](C(=O)Nc3nc4ccccc4s3)[C@H]12 , what is its reported composite z-score?
**Result** 0.975

**Query** Given the compound CC(=O)n1cc(C(O)C2C=CC3C(=O)N(c4ccccc4)C(=O)C3N2Nc2ccccc2)c2ccccc21 (configuration not stated) , what is its reported composite z-score?
**Result** 0.735
